What follows is literature data on Ki for UniProtKB P00915.

Recorded Ki, per entry:
INSERT INTO results (smiles_repr, parameter, assay_result) VALUES
  ('CCOc1ccc2nc(NC(=O)CNC(=O)OCc3ccccc3)sc2c1', 'Ki', '> 100 µM'),
  ('O=C(COc1ccc2ccc(=O)oc2c1)NCc1ccc(F)cc1', 'Ki', '> 10 µM'),
  ('O=c1ccc2cc(-n3cc(CNc4ccc(Oc5ccccc5)cc4)nn3)ccc2o1', 'Ki', '> 50 µM'),
  ('CCOC(=O)c1ccc(NC(=S)NC(=O)c2ccc(NC(=O)C(C)C)cc2)cc1', 'Ki', '8.5 µM');

We next turn to a different molecule, shown below.
### Prompt I would be grateful if you could share the reported Ki for O=C(COc1ccc2ccc(=O)oc2c1)Nc1ccccc1 .
### Response > 10 µM
